Just for reference, the supplement of paper PMC9170038 is where these values come from.

test system: MS2 coat protein; assay: apparent KD of MS2 coat protein, switch ON state; designed switch direction (-1 OFF switch, 1 ON switch): -1; higher = weaker reporter binding; settings: FMN input: 0 or 200 uM; Eterna round: R93 (includes R88 designs)
Binary classification by apparent KD of MS2 coat protein, with 50 nM as an inclusive lower bound for 1; all other cases are 0.

Example results:
| macromolecule sequence | qualitative label |
| --- | --- |
| ACAGUUACAGGAUAUACAAGGGAAAAUAAAAAUAAACUUCAACAUGAGGAUCACCCAUGUAGAAGGGUAACUGA [Ex2 Design 199: Random 14] | 0 |
| AAAAAGAAAGGAUAUACGAACAUGUCAAAAGACGUGAAGGGACAUGAGGAUCACCCAUGUAGAAGGUUCAAAAA [JL Half Open 22] | 0 |
| GGGUGGCGAGGAUAUACAUGAGGAUCACCCAUGUGAGAGAAAAAAGUGAGAAAGAAAAGUAGAAGGCGCUGCCG [salish99-ex3-56] | 0 |
| AAAAGCACAGGAUAUACAUAAUUAUGACGAAAGUCAUAAAAACAUGAGGAUCACCCAUGUAGAAGGGUGCAAAA [Mod of Meechl's... 64% 1] | 1 |
| GUGUACAGAGGAUAUACUAAAGCUAGGAAACUAGCAAGAUCACAUGAGGAUCACCCAUGUAGAAGGCUGUACAC [Ex2: 740] | 1 |

Exercise: // inclusive: apparent KD of MS2 coat protein at least 50 nM? input: AAAUAGCAAGGAUAUACAUGAGGAUCACCCAUGUAAGGAUGGAAAGUAAUAGAAGAAAGUAGAAGGUGCAAAUA [Ex 3 Tesla 4]
Solution: 0

Exercise: // inclusive: apparent KD of MS2 coat protein at least 50 nM? input: ACUAUACGAGGAUAUGCUGUCAACACUAAGGAAUUCGUAUGACAUGAGGAUCACCCAUGUAGAAGGCGUAUACU [JR_Exc002_Sub510]
Solution: 0

Exercise: // inclusive: apparent KD of MS2 coat protein at least 50 nM? input: AAAAACGUAGGAUAUACAUGAAAAAAAAAAAAAAAAAAAAGACAUGAGGAUCACCCAUGUAGAAGGGCGAAAAA [water's exclusion 2]
Solution: 1

Exercise: // inclusive: apparent KD of MS2 coat protein at least 50 nM? input: AACAGUACAGGAUAUACAUGAGGAUCACCCAUGUGAAAUAAAAGUGGCGUACCACAAAGUAGAAGGGUACUGAA [Mat - Exclusion 3 - JL mod - D27]
Solution: 0

Exercise: // inclusive: apparent KD of MS2 coat protein at least 50 nM? input: AAAAAUUGAGGAUAUACGAACAUGUCGAAAGACGUGAAGGGACAUGAGGAUCACCCAUGUAGAAGGCGAAAAAA [Mat - Exclusion 2 - JL mod - D68]
Solution: 0

Exercise: // inclusive: apparent KD of MS2 coat protein at least 50 nM? input: CUCUAGUGAGGAUAUACAAGAAAAGAAAAGAAAGAAAAGAAGUAGAAGGCACAUGAGGAUCACCCAUGUAAGAA [EteRNA is fun!]
Solution: 0

Exercise: // inclusive: apparent KD of MS2 coat protein at least 50 nM? input: GGUUGGCGAGGAUAUACAUGAGGAUCACCCAUGUGAGAGAAUAAAGUGAGAAAGAAAAGUAGAAGGCGCUGACG [salish99-ex3-44]
Solution: 1

Exercise: // inclusive: apparent KD of MS2 coat protein at least 50 nM? input: UACGGACAUGAGGAUCACCCAUGUGAGGAUAUCGAUACCGAUAGCAUAAUAUAAUCGGCGAGAAGGCACAGCGU [JR_Exc001_Sub505]
Solution: 0

Exercise: // inclusive: apparent KD of MS2 coat protein at least 50 nM? input: GAUGAGUGAGGAUAUGUAAAAAAAAGAGAAGAGAAGAGAGAACAGAAGGCACAUGAGGAUCACCCAUGUAGGGA [Default title]
Solution: 1

Exercise: // inclusive: apparent KD of MS2 coat protein at least 50 nM? input: CAGGUACGAGGAUAUACAUAGAUACAGACACAUGUUCAAGUACAUGAGGAUCACCCAUGUAGAAGGCGUAUAUG [Mat - Same state - Mayanna Mod - D108]
Solution: 0

Exercise: // inclusive: apparent KD of MS2 coat protein at least 50 nM? input: AAAAGACAUGAGGAUCACCCAUGUUAGGAUAUGGAAAAACAAAAAAAAAAAAAAAAAACCAGAAGGAGCGAGGG [another 1 four]
Solution: 1

Exercise: // inclusive: apparent KD of MS2 coat protein at least 50 nM? input: AUAAAGAGAGGAUAUACAUGAGGAUCACCCAUGUAAGAAAUAAAAUAAAUAAAGGGAAGUAGAAGGCUCAAAUA [Denovo 2]
Solution: 0

Exercise: // inclusive: apparent KD of MS2 coat protein at least 50 nM? input: AACAGUACAGGAUAUACAUGAGGAUCACCCAUGUGGGAAUUAAGUGGCGUACCACAAAGUAGAAGGGUACUGGA [Moding Maslow revisited (73)]
Solution: 1

Exercise: // inclusive: apparent KD of MS2 coat protein at least 50 nM? input: AACAGCACAGGAUAUACAUGAGGAUCACCCAUGUGAGAAUUAAGUGGCGUACCACAAAGUAGAAGGGUGCUGGA [Mat - Exclusion 3 - JL mod - D39]
Solution: 0

Exercise: // inclusive: apparent KD of MS2 coat protein at least 50 nM? input: GAAAAGUCAGGAUAUGUGGAAAAAAUAAAAAAAAUAAAAACACAGAAGGGACAUGAGGAUCACCCAUGUUAAAG [Mat - Exclusion 4 - Mayanna - D138]
Solution: 0

Exercise: // inclusive: apparent KD of MS2 coat protein at least 50 nM? input: AAAAACGGAGGAUAUGCAAAAAAAAAAAAAAAAAAAAAAAAACAUGAGGAUCACCCAUGUAGAAGGCCGAAAAA [Diamond]
Solution: 0

Exercise: // inclusive: apparent KD of MS2 coat protein at least 50 nM? input: AACAUGUUAGGAUAUUGAAGAAAAGAAAAGAAAGAAAAGAACAAGAAGGAACAUGAGGAUCACCCAUGUAAGAA [EteRNA is fun!]
Solution: 0

Exercise: // inclusive: apparent KD of MS2 coat protein at least 50 nM? input: AAAAAGUCAGGAUAUAGCAAAGGUCACGAAAGUGACAAAGGCUAGAAGGGACAUGAGGAUCACCCAUGUAAAAA [Fiskers Exclusion 4 D2]
Solution: 1

Exercise: // inclusive: apparent KD of MS2 coat protein at least 50 nM? input: AGAAAACAUGAGGAUCACCCAUGUCAGGAUAUGUAAAAGAAAAGAAAAGAAAGAAGAAGCAGAAGGGACAAGAA [Sekhemkhet]
Solution: 0

Exercise: // inclusive: apparent KD of MS2 coat protein at least 50 nM? input: AGCUAGUGAGGAUAUACGAACAAGUAAACGGACUGUAAGGGACAUGAGGAUCACCCAUGUAGAAGGCACUAGCA [Diamond 59]
Solution: 0
